- measurement description: sensitizers of A549 cells to miR-34 induction, primary screen, imaging, A549 dox-inducible miR-34, nuclei and caspase counts (AID 1347080)
- measurement context: A549 miR-34 inducible, Hoechst nuclei count, 48 h; measured here: total cells without miR-34 induction
measurement kind: cell count

Entry C/C=C\C1=C(C(=O)O)N2C(=O)C(NC(=O)C(N)c3ccc(O)cc3)C2SC1 (stereo not given) — recorded cell count = 13100

cell count reading for Cc1ccccc1C(=O)c1ccc(Nc2ccc(Br)cc2N)cc1Cl : 7220

Entry Cc1[nH]c(/C=C2\C(=O)Nc3ccccc32)c(C)c1CCC(=O)O ; cell count = 6730

Sure, the documented cell count for CC(=O)OCC(=O)[C@@]1(O)CCC2C3CCC4=CC(=O)CC[C@]4(C)[C@@]3(F)[C@@H](O)C[C@@]21C (stereo not given in full) is 7830

The reported cell count of the compound C[C@]1(Cn2ccnn2)C(C(=O)O)N2C(=O)CC2S1(=O)=O (stereo not given in full) was 8960

---

Provide the recorded viability for the entries that follow.
- measurement description: ovarian cancer cell viability with rucaparib, profiling panel, oncology-focused library, rucaparib conditional (AID 1508598)
- measurement context: patient-derived ovarian cancer cells, CellTiter-Glo viability, 144 h; at 0.000305 µM; OCI-P5x cells; with rucaparib 20 µM; stronger effect = lower value; 100% = cells with rucaparib alone
Dear colleague, please return just the value in %, with no unit written.

Reported viability for O=C1CN2Cc3c(ccc(Cl)c3Cl)N=C2N1 was 98.8

Briefly, viability measured for C[C@H](NC(=O)Cc1cc(F)cc(F)c1)C(=O)N[C@H](C(=O)OC(C)(C)C)c1ccccc1 : 110

The reported value for O=c1[nH]c(-c2ccc(C(F)(F)F)cc2)nc2c1CSCC2 in terms of viability is 98.7

The molecule O=C(c1ccc(OCCN2CCCCC2)cc1)c1c(-c2ccc(O)cc2)sc2cc(O)ccc12 showed viability equal to 101

Short answer for CC(NC(=O)c1ccccc1N=Cc1c(O)ccc2ccccc12)c1ccccc1 (stereo not given) : viability was 102

Briefly, viability measured for C[C@@H](N)C1CCC(C(=O)Nc2ccncc2)CC1 (stereo not given in full) : 93.5

# viability of O=c1cc(-c2cccc3c2Sc2ccccc2S3)oc(N2CCOCC2)c1 = 105

The reported value for CN(C)CCCn1cc(C2=C(c3c[nH]c4ccccc34)C(=O)NC2=O)c2ccccc21 in terms of viability is 94.2

// viability value for CC(C)c1onc(-c2c(Cl)cccc2Cl)c1COc1ccc(/C=C/c2cccc(C(=O)O)c2)c(Cl)c1 : 90.8

Given item Nc1nc(Cl)nc2c1ncn2[C@H]1C[C@H](O)[C@@H](CO)O1 , the value recorded as its viability is 106

---

Assignment: determine reported parasite load remaining for the given compounds.
- measurement description: liver-stage malaria parasite growth inhibition, primary screen, cell-based, HepG2, luciferase luminescence, HepG2 viability (AID 624349);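 further: 100% = mean of DMSO negative control wells on the same plate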
- measurement context: P. berghei liver stage in HepG2, luciferase luminescence, concentration not given here; stronger effect = lower value
Numbers only; they are read as %.

Notebook: COc1c(N2C[C@@H]3CCCN[C@@H]3C2)c(F)cc2c(=O)c(C(=O)O)cn(C3CC3)c12 , parasite load remaining read as 52.8

Per the records, this compound ( CC1CC2C3CCC4=CC(=O)C=CC4(C)[C@@]3(Cl)C(O)CC2(C)C1(O)C(=O)CO (stereo partly drawn) ) has parasite load remaining equal to 68.1

parasite load remaining measured on N#C/C(=C\c1ccc(O)c(O)c1)C(=O)NCc1ccccc1 = 29.1

Record CC(=O)c1cc2ccccc2oc1=O , field parasite load remaining: 80.8

get_value(item= CCC1=C[C@H]2CN(C1)Cc1c([nH]c3ccccc13)[C@@](C(=O)OC)(c1cc3c(cc1OC)N(C)[C@H]1[C@@](O)(C(=O)OC)[C@H](OC(C)=O)[C@]4(CC)C=CCN5CC[C@]31[C@@H]54)C2 , readout=parasite load remaining) returns 32.2

Reported parasite load remaining ( N#CC(c1ccc(Cl)cc1)c1c(Cl)cc(-n2ncc(=O)[nH]c2=O)cc1Cl (stereo not drawn) ) = 30.6

// recorded parasite load remaining for O=C(Nc1ccccc1)c1ccccc1O : 67.6

// parasite load remaining lookup, compound = COc1cc(N)c(Cl)cc1C(=O)N[C@@H]1CCN(CCCOc2ccc(F)cc2)C[C@@H]1OC , result: 13.5

GET /value?item= CC(=O)O[C@@H]1CC2C(C)(C)C(=O)C=C[C@]2(C)C2CC[C@@]3(C)[C@H](c4ccoc4)OC(=O)[C@H]4O[C@]43[C@@]21C (stereo partly drawn) &field=parasite load remaining returns 2.66

Entry CC(C)N(CCC(=O)c1ccc2ccccc2c1)Cc1ccccc1 , parasite load remaining reported as 28.5

Recorded result, NC(=O)c1ncn(C2OC(CO)C(O)C2O)n1 (stereo not drawn) , parasite load remaining: 36.7

According to the records, this compound O=C(O)C1=C(CSc2nnnn2CS(=O)(=O)O)CS[C@@H]2C(NC(=O)[C@H](O)c3ccccc3)C(=O)N12 (stereo partly drawn) displays parasite load remaining of 57.8

Recorded result, C[C@H]1CC2C([C@@H](O)C[C@@]3(C)C2CC[C@]3(O)C(=O)COC(=O)CCC(=O)O)[C@@]2(C)C=CC(=O)C=C12 (stereo partly drawn) , parasite load remaining: 83.5

Entry CC(C)(C)NC(=O)[C@H]1CCC2C3CCC4NC(=O)C=C[C@]4(C)C3CC[C@@]21C (stereo partly drawn) ; parasite load remaining = 30.5

// parasite load remaining value for C[C@@H]1O[C@@H](OC[C@H]2OC(Oc3c(-c4ccc(O)c(O)c4)oc4cc(O)cc(O)c4c3=O)[C@H](O)[C@@H](O)[C@@H]2O)[C@H](O)[C@H](O)[C@H]1O (stereo partly drawn) : 80

Entry under test: C[C@@H](N)C1CCC(C(=O)Nc2ccncc2)CC1 (stereo partly drawn) . Its parasite load remaining was 75.2

Entry CC1(C)O[C@@H]2CC3C4C[C@H](F)C5=CC(=O)C=C[C@]5(C)[C@@]4(F)[C@@H](O)C[C@]3(C)[C@]2(C(=O)CO)O1 (stereo partly drawn) , parasite load remaining reported as 74.8

Query OC[C@H]1O[C@@H](n2cnc3c(NC4CCCC4)nc(Cl)nc32)[C@@H](O)C1O (stereo partly drawn) yields parasite load remaining of 65.4

---

- measurement description: ICB984 medulloblastoma cell growth inhibition, synergistic combos for chromothripsis tumors, cisplatin or BGB combos (AID 1671451);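 further: cells exposed for 96 hours before readout; 0% = vehicle DMSO and 100% = killing by high DMSO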
- measurement context: ICB984 medulloblastoma cells, drug combinations, cisplatin combo, at 0.05 µM, stronger effect = higher value
measurement kind: inhibition (%)
Numeric only. Scale: %

Looking up CCc1c2c(nc3ccc(O)cc13)-c1cc3c(c(=O)n1C2)COC(=O)[C@]3(O)CC , I see its inhibition listed as 95.2

Lookup result for NC(=O)c1ncn(C2OC(CO)C(O)C2O)n1 (stereo not drawn) ; measured inhibition: 6.2

Kindly note the recorded inhibition for O=c1ncccn1[C@@H]1O[C@H](CO)[C@@H](O)[C@H]1O , which is -22.2

What the record says about O=C(Nc1ccccc1)c1ccccc1O : inhibition is 0.369

// CC(C)N=c1cc2n(-c3ccc(Cl)cc3)c3ccccc3nc-2cc1Nc1ccc(Cl)cc1 : inhibition value = -16

# compound Cc1c(-c2cnccn2)ssc1=S ; its inhibition = -8.66

Per the records, this compound ( O=c1[nH]c(-c2ccc(C(F)(F)F)cc2)nc2c1CSCC2 ) has inhibition equal to -15.7

inhibition for CO[C@H]1/C=C/O[C@@]2(C)Oc3c(C)c(O)c4c(O)c(c(C=NN5CCN(C)CC5)c(O)c4c3C2=O)NC(=O)/C(C)=C\C=C\[C@H](C)[C@H](O)[C@@H](C)[C@@H](O)[C@@H](C)[C@H](OC(C)=O)[C@@H]1C is 33.5

---

Provide the reported inhibition of each item.
- measurement description: MDA-MB-436 breast carcinoma cell growth inhibition, synergistic combos for chromothripsis tumors, BGB or cisplatin combos (AID 1671458);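 further: cells exposed for 96 hours; 0% = vehicle DMSO and 100% = killing by high DMSO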
- measurement context: MDA-MB-436 breast carcinoma growth inhibition, drug combinations; at 0.5 µM; stronger effect = higher value
Please state the figure in %; there is no need to write the unit.

For O=c1ncccn1[C@@H]1O[C@H](CO)[C@@H](O)[C@H]1O the molecule record lists inhibition as -13.6

The molecule O=C(Nc1ccncc1)c1cc([N+](=O)[O-])ccc1Cl showed inhibition equal to -25.3

GET /value?item= CCc1c2c(nc3ccc(O)cc13)-c1cc3c(c(=O)n1C2)COC(=O)[C@]3(O)CC &field=inhibition returns 72.1

Looking up O=c1[nH]c(-c2ccc(C(F)(F)F)cc2)nc2c1CSCC2 , I found its inhibition recorded as -4.6

Note to self: inhibition recorded for O=C(Nc1ccccc1)c1ccccc1O was -7.25

---

- measurement description: LFS_MB_P medulloblastoma growth inhibition, cell-based, chromothripsis tumors, cisplatin or BGB combos (AID 1671449);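 further: cells exposed for 96 hours; 0% = vehicle DMSO and 100% = killing by high DMSO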
- measurement context: LFS_MB_P medulloblastoma cells, measured here: combination with BGB IC20, at 0.005 µM
Kindly supply the reported inhibition values for the records listed here.
Express your answer in %, writing the number without its unit.

The compound listed as O=c1cc(-c2cccc3c2Sc2ccccc2S3)oc(N2CCOCC2)c1 shows inhibition equal to -22.8

NC(=O)c1ncn(C2OC(CO)C(O)C2O)n1 (stereo unspecified) yielded inhibition of -16.5

compound O=c1ncccn1[C@@H]1O[C@H](CO)[C@@H](O)[C@H]1O , inhibition observed: -19.6

inhibition measured on CO[C@H]1/C=C/O[C@@]2(C)Oc3c(C)c(O)c4c(O)c(c(C=NN5CCN(C)CC5)c(O)c4c3C2=O)NC(=O)/C(C)=C\C=C\[C@H](C)[C@H](O)[C@@H](C)[C@@H](O)[C@@H](C)[C@H](OC(C)=O)[C@@H]1C = -12.4

Please fill in: inhibition reported for CCc1c2c(nc3ccc(O)cc13)-c1cc3c(c(=O)n1C2)COC(=O)[C@]3(O)CC = -6.89

The compound identified as O=C(Nc1ccccc1)c1ccccc1O registered its inhibition at 6.63
